- Experiment notes: Antagonist activity at P2Y12 receptor in human platelet rich plasma assessed as inhibition of ADP-induced platelet aggregation by light transmission aggregometry
Metric: pIC50
Note: pIC50 values are expressed as the negative base-10 logarithm of concentration in M.

Q: Would you kindly share the measured pIC50 for CCCCCOC(=O)N1CCN(C(=O)[C@H](CCC(=O)O)NC(=O)c2nc(-c3ccccc3)cc(N3CCN(CCOC)CC3)n2)CC1 ?
Ans: 5.29

Q: Would you kindly share the measured pIC50 for CCCCCOC(=O)N1CCN(C(=O)[C@H](CCC(=O)O)NC(=O)c2cc(N3CCN(C(C)=O)CC3)nc(-c3ccccc3)n2)CC1 ?
Ans: 5.82

Q: Would you kindly share the measured pIC50 for CCCCCOC(=O)N1CCN(C(=O)[C@H](CCC(=O)O)NC(=O)c2cc(N3CCN(C(N)=O)CC3)nc(-c3ccccc3)n2)CC1 ?
Ans: 6.03

Q: Would you kindly share the measured pIC50 for CCCCCOC(=O)N1CCN(C(=O)[C@H](CCC(=O)O)NC(=O)c2nc(-c3ccccc3)cc(N3CCC(OCCOC)CC3)n2)CC1 ?
Ans: 5.28

Q: Would you kindly share the measured pIC50 for CCCCCOC(=O)N1CCN(C(=O)[C@H](CCC(=O)O)NC(=O)c2cc(N3CCN(CC(=O)N4CCCC4)CC3)nc(-c3ccccc3)n2)CC1 ?
Ans: 5.96

Reference for the values: BindingDB's records for doi:10.1016/j.bmcl.2009.09.017
